Entries and their EC50
# System: M17-TAU P301L cells
# ASSAY TEXT: TAU-induced toxicity: LDH leakage of retinoic acid incubated M17-TAU P301L cells
# Assay type: cell-based, human
# DETAILS: Homo sapiens; reduction of LDH activity of retinoic acid incubated M17-TAU P301L cells; read-out: EC50 (μg/ml) TAU-induced toxicity
ENDPOINT LABEL: EC50

>>> observed_result("O=C(NCCc1c[nH]c2ccc(F)cc12)c1cc(Cc2cccc(F)c2F)on1 [Compound 5]")
"0.0028 µg/mL"
>>> observed_result("O=C(NCCc1c[nH]c2ccc(F)cc12)c1cc(Cc2cc(F)ccc2F)on1 [Compound 6]")
"0.0034 µg/mL"
>>> observed_result("O=C(NCCc1c[nH]c2ccc(F)cc12)c1cc(Cc2ccccc2F)on1 [Compound 7]")
"0.0043 µg/mL"

From: patent US11939324B2
